Where do these numbers come from? They come from the supplement of paper PMC8253809.

- Tested on: DIPGX7 (H3.3 K27M diffuse intrinsic pontine glioma line)
- assay method text: area under dose-response curve of % growth inhibition (log2 RLU vs DMSO / staurosporine), 1e-11 to 1e-4 M (% x log10 M); higher = more growth inhibition
Param threshold (200) applies to area under dose-response curve; output criterion met when value >= threshold, criterion not met when value < threshold.

Data request: Kindly determine if area under dose-response curve recorded for COc1ccc(-c2nc(N3CCOCC3)c3sc(CN(C)c4ncc(C(=O)NO)cn4)cc3n2)cn1 [CUDC-907] is above or exactly 200.
Data returned: criterion met

Data request: Kindly determine if area under dose-response curve recorded for CCN(CC)CCNC(=O)c1c(C)[nH]c(/C=C2\C(=O)Nc3ccc(F)cc32)c1C [SUNITINIB] is above or exactly 200.
Data returned: criterion not met

Data request: Kindly determine if area under dose-response curve recorded for Cc1noc2c1-c1ccccc1C(c1ccc(Cl)cc1)=N[C@H]2CC(N)=O [CPI-0610] is above or exactly 200.
Data returned: criterion not met

Data request: Kindly determine if area under dose-response curve recorded for CC(C)c1c2cc(-c3ccnc(NC4CCC(NC5CCOCC5)CC4)n3)ccc2nn1C (stereo not drawn) is above or exactly 200.
Data returned: criterion met

Data request: Kindly determine if area under dose-response curve recorded for CCOc1cc(C(C)(C)C)ccc1C1=N[C@@](C)(c2ccc(Cl)cc2)[C@@](C)(c2ccc(Cl)cc2)N1C(=O)N1CCN(CCCS(C)(=O)=O)CC1 [RG7112] is above or exactly 200.
Data returned: criterion not met

Data request: Kindly determine if area under dose-response curve recorded for CC(=O)OC[C@H]1O[C@@H]([S-])[C@H](OC(C)=O)[C@@H](OC(C)=O)[C@@H]1OC(C)=O.CCP(CC)CC.[Au+] [AURANOFIN] is above or exactly 200.
Data returned: criterion met

Data request: Kindly determine if area under dose-response curve recorded for CC(C)C[C@H](NC(=O)[C@H](CCc1ccccc1)NC(=O)CN1CCOCC1)C(=O)N[C@@H](Cc1ccccc1)C(=O)N[C@@H](CC(C)C)C(=O)[C@@]1(C)CO1 [CARFILZOMIB] is above or exactly 200.
Data returned: criterion met

* * *

- Test system: HGGX39 (paediatric high-grade glioma line)
- assay method text: EC50 (inflection of fitted growth-inhibition curve) (log10 M)
Rule: EC50 (log10 M) below -5 gives t. Equal to or above -5 gives f.

Data request: Identify whether the compound CO[C@@]12[C@H](COC(N)=O)C3=C(C(=O)C(C)=C(N)C3=O)N1C[C@@H]1N[C@@H]12 records EC50 (log10 M) below -5.
Data returned: f

Data request: Identify whether the compound CC(C)c1c2cc(-c3ccnc(NC4CCC(NC5CCOCC5)CC4)n3)ccc2nn1C (stereo not given) records EC50 (log10 M) below -5.
Data returned: t

Data request: Identify whether the compound COC(=O)[C@]12CCC(C)(C)C[C@H]1[C@H]1C(=O)C=C3[C@@]4(C)C=C(C#N)C(=O)C(C)(C)[C@@H]4CC[C@@]3(C)[C@]1(C)CC2 records EC50 (log10 M) below -5.
Data returned: t

Data request: Identify whether the compound COc1cc(Nc2c(C#N)cnc3cc(OCCCN4CCN(C)CC4)c(OC)cc23)c(Cl)cc1Cl records EC50 (log10 M) below -5.
Data returned: f

Data request: Identify whether the compound Cc1nc2c([nH]1)-c1ccccc1N(C(=O)c1ccc(NC(=O)c3ccccc3-c3ccccc3)cc1)CC2 records EC50 (log10 M) below -5.
Data returned: f

Data request: Identify whether the compound Nc1ccccc1NC(=O)c1ccc(CNc2nccc(-c3cccnc3)n2)cc1 records EC50 (log10 M) below -5.
Data returned: t

Data request: Identify whether the compound COc1cc([C@@H]2c3cc4c(cc3[C@@H](O[C@@H]3O[C@@H]5CO[C@@H](c6cccs6)O[C@H]5[C@H](O)[C@H]3O)[C@H]3COC(=O)[C@H]23)OCO4)cc(OC)c1O [TENIPOSIDE] records EC50 (log10 M) below -5.
Data returned: t

Data request: Identify whether the compound O=C(O)C[C@H](O)C[C@H](O)/C=C/c1c(C2CC2)nc2ccccc2c1-c1ccc(F)cc1 records EC50 (log10 M) below -5.
Data returned: t

Data request: Identify whether the compound O=C1COc2c(CCNCCN(C(=O)CCNCCc3ccc(Cl)c(Cl)c3)C3CCCCC3)ccc(O)c2N1 records EC50 (log10 M) below -5.
Data returned: f

Data request: Identify whether the compound [O-][n+]1ccccc1[S-].[O-][n+]1ccccc1[S-].[Zn+2] records EC50 (log10 M) below -5.
Data returned: t

* * *

- System: HABS (astrocyte control)
- assay method text: EC50 (inflection of fitted growth-inhibition curve) (log10 M)
Exercise: state measured EC50 (log10 M) for each of the compounds provided.
Lab note: record just the number, no unit beside it.

Data request: Give the reported value of EC50 (log10 M) for this record: Nc1ccccc1NC(=O)c1ccc(CNc2nccc(-c3cccnc3)n2)cc1 [MOCETINOSTAT]
Data returned: -5.43

Data request: Give the reported value of EC50 (log10 M) for this record: C=CCNC1=C2C[C@@H](C)C[C@H](OC)[C@H](O)[C@@H](C)/C=C(\C)[C@H](OC(N)=O)[C@@H](OC)/C=C\C=C(/C)C(=O)NC(=CC1=O)C2=O [TANESPIMYCIN]
Data returned: -5.41

Data request: Give the reported value of EC50 (log10 M) for this record: CC(C)C[C@H](NC(=O)CNC(=O)c1cc(Cl)ccc1Cl)B(O)O [IXAZOMIB]
Data returned: -7.43

Data request: Give the reported value of EC50 (log10 M) for this record: C[C@@]12OC(=O)[C@]1([C@@H](O)[C@@H]1C=CCCC1)NC(=O)[C@@H]2CCCl [MARIZOMIB]
Data returned: -6.2

Data request: Give the reported value of EC50 (log10 M) for this record: C=CCn1c(=O)c2cnc(Nc3ccc(N4CCN(C)CC4)cc3)nc2n1-c1cccc(C(C)(C)O)n1 [MK-1775]
Data returned: -5.41

* * *

- Test system: DIPGX29 (H3.3 K27M diffuse intrinsic pontine glioma line)
- assay method text: EC50 (inflection of fitted growth-inhibition curve) (log10 M)
quantity: EC50 (log10 M)
Lab note: record just the number, no unit beside it.

Data request: Give the reported value of EC50 (log10 M) for this record: O=C1NCCc2[nH]c(-c3ccncc3)cc21
Data returned: -5.62

Data request: Give the reported value of EC50 (log10 M) for this record: CCCCC(CC)CNC(=N)NC(=N)NCCCCCCNC(=N)NC(=N)NCC(CC)CCCC (stereo not drawn)
Data returned: -6.06

Data request: Give the reported value of EC50 (log10 M) for this record: CCC(C)(C)c1ccc(CC(C)CN2C[C@@H](C)O[C@@H](C)C2)cc1 (stereo partly drawn)
Data returned: -5.09

Data request: Give the reported value of EC50 (log10 M) for this record: COc1ncc(-c2ccc3nccc(-c4ccnnc4)c3c2)cc1NS(=O)(=O)c1ccc(F)cc1F
Data returned: -5.88

Data request: Give the reported value of EC50 (log10 M) for this record: C=CCNC1=C2C[C@@H](C)C[C@H](OC)[C@H](O)[C@@H](C)/C=C(\C)[C@H](OC(N)=O)[C@@H](OC)/C=C\C=C(/C)C(=O)NC(=CC1=O)C2=O
Data returned: -5.85

Data request: Give the reported value of EC50 (log10 M) for this record: COC(=O)[C@]12CCC(C)(C)C[C@H]1[C@H]1C(=O)C=C3[C@@]4(C)C=C(C#N)C(=O)C(C)(C)[C@@H]4CC[C@@]3(C)[C@]1(C)CC2
Data returned: -6.17

Data request: Give the reported value of EC50 (log10 M) for this record: Nc1nc2[nH]cnc2c(=S)[nH]1
Data returned: -5.83

Data request: Give the reported value of EC50 (log10 M) for this record: Fc1ccc(C(c2ccc(F)cc2)N2CCN(C/C=C/c3ccccc3)CC2)cc1
Data returned: -4.86

* * *

- Test system: DIPGX9 (diffuse intrinsic pontine glioma line)
- assay method text: maximal growth inhibition (yFin) relative to DMSO / staurosporine; higher = more efficacious
quantity: maximal growth inhibition

Data request: Give the reported value of maximal growth inhibition for this record: Cc1[nH]c2ccccc2c1CCNCc1ccc(/C=C/C(=O)NO)cc1
Data returned: 90.7%

Data request: Give the reported value of maximal growth inhibition for this record: O=C(Nc1ccc(Nc2nccc(Nc3cc(C4CCCC4)[nH]n3)n2)cc1)Nc1cccc(C(F)(F)F)c1
Data returned: 115%

Data request: Give the reported value of maximal growth inhibition for this record: CCOC(=O)CCNc1cc(N2CCc3ccccc3CC2)nc(-c2ccccn2)n1
Data returned: 94.2%

Data request: Give the reported value of maximal growth inhibition for this record: COC(=O)Nc1nc2cc(C(=O)c3ccccc3)ccc2[nH]1
Data returned: 36.9%

Data request: Give the reported value of maximal growth inhibition for this record: CCOc1cc(C(C)(C)C)ccc1C1=N[C@@](C)(c2ccc(Cl)cc2)[C@@](C)(c2ccc(Cl)cc2)N1C(=O)N1CCN(CCCS(C)(=O)=O)CC1
Data returned: 109%

Data request: Give the reported value of maximal growth inhibition for this record: O=C(Nc1ccc([N+](=O)[O-])cc1Cl)c1cc(Cl)ccc1O [NICOLSAMIDE]
Data returned: 94%

Data request: Give the reported value of maximal growth inhibition for this record: COC(=O)[C@]12CCC(C)(C)C[C@H]1[C@H]1C(=O)C=C3[C@@]4(C)C=C(C#N)C(=O)C(C)(C)[C@@H]4CC[C@@]3(C)[C@]1(C)CC2
Data returned: 107%
